Consider the following compounds and their measured Percent Effect readings.
Test target: Sialic acid-binding Ig-like lectin 9 (Homo sapiens)
Measurement protocol: Hs-Siglec9 ALPHAscreen SOP 20170721
Design: scale not given: direction of the effect not stated beside the values
Condition label: 10 µM
Field format: number, assumed %, no unit text.

CC(NC(=O)NCc1cccnc1N1CCCCC1)c1nccs1 (centres undefined)
1.05
CCc1noc(C(C)N2CCN(Cc3nc(C)c(C)o3)CC2)n1 (centres undefined)
1.87
COc1cccn(CC(=O)N(C)CCOc2cc(C)cc(C)c2)c1=O
11.9
CN1C(=O)CC(c2cnn(C)c2)C12CCN(C(=O)C1CC=CC1)CC2 (centres undefined)
5.51
Cc1ccc(NC2CCN(C(=O)CCNS(C)(=O)=O)CC2)nn1
9

Per the records, this compound ( CCNC(=O)c1nc2c(s1)CCCN2S(C)(=O)=O ) has Percent Effect equal to -4.95

Per the records, this compound ( Cc1noc(C)c1CN1CC[C@@H](OCC2CC2)[C@@H](Cc2ccccc2)C1 ) has Percent Effect equal to -2.52

Per the records, this compound ( Cc1cnn(CCNCc2nc(COc3ccc(F)cc3)no2)c1 ) has Percent Effect equal to 0.726

Per the records, this compound ( CCc1ncnc2c1CCN(C(=O)N1CCCC1)CC2 ) has Percent Effect equal to 8.2

Per the records, this compound ( Cc1cnn(Cc2cc(F)ccc2F)c1NC(=O)NC1CC1 ) has Percent Effect equal to 41.4
